The following compounds are listed with their measured activity coefficient values.
# ASSAY_TEXT: activity coefficient (dimensionless); of the first substance listed, at infinite dilution; xn = mol fraction of the nth substance listed
# CONDITION_CONTEXT: 343.15 K; Liquid; Chromatography; x1 = 0
MEASUREMENT_KIND: activity coefficient

{"COMPOUND": "Cc1ccccc1C [1,2-dimethylbenzene] + CCCCCCCCCC[N+](C)(C)C.O=S(=O)([N-]S(=O)(=O)C(F)(F)F)C(F)(F)F", "OBSERVED_RESULT": 1.07}
{"COMPOUND": "OCC(F)(F)F [2,2,2-trifluoroethanol] + CCCCCCCCCC[N+](C)(C)C.O=S(=O)([N-]S(=O)(=O)C(F)(F)F)C(F)(F)F", "OBSERVED_RESULT": 0.41}
{"COMPOUND": "CC(C)CO [2-methyl-1-propanol] + CCCCCCCCCC[N+](C)(C)C.O=S(=O)([N-]S(=O)(=O)C(F)(F)F)C(F)(F)F", "OBSERVED_RESULT": 1.31}
{"COMPOUND": "c1ccncc1 [pyridine] + CCCCCCCC[N+](CCCCCCCC)(CCCCCCCC)CCCCCCCC.O=S(=O)([N-]S(=O)(=O)C(F)(F)F)C(F)(F)F", "OBSERVED_RESULT": 0.34}
{"COMPOUND": "CO [methanol] + CCCCCCCCCC[N+](C)(C)C.O=S(=O)([N-]S(=O)(=O)C(F)(F)F)C(F)(F)F", "OBSERVED_RESULT": 0.66}
{"COMPOUND": "ClCCl [dichloromethane] + CCCCCCCC[N+](CCCCCCCC)(CCCCCCCC)CCCCCCCC.O=S(=O)([N-]S(=O)(=O)C(F)(F)F)C(F)(F)F", "OBSERVED_RESULT": 0.31}
{"COMPOUND": "CCCCCCCCC [nonane] + CCCCCCCCCC[N+](C)(C)C.O=S(=O)([N-]S(=O)(=O)C(F)(F)F)C(F)(F)F", "OBSERVED_RESULT": 7.61}
{"COMPOUND": "Cc1ccccc1C [1,2-dimethylbenzene] + CCCC[N+](C)(CCCC)CCCC.O=S(=O)([N-]S(=O)(=O)C(F)(F)F)C(F)(F)F", "OBSERVED_RESULT": 1.46}
{"COMPOUND": "OCC(F)(F)F [2,2,2-trifluoroethanol] + CCCCCCCC[N+](CCCCCCCC)(CCCCCCCC)CCCCCCCC.O=S(=O)([N-]S(=O)(=O)C(F)(F)F)C(F)(F)F", "OBSERVED_RESULT": 0.36}
{"COMPOUND": "CCC(C)CC [3-methylpentane] + CCCCCCCC[N+](C)(C)C.O=S(=O)([N-]S(=O)(=O)C(F)(F)F)C(F)(F)F", "OBSERVED_RESULT": 4.87}
{"COMPOUND": "CCC[N+](=O)[O-] [1-nitropropane] + CCCCCCCC[N+](C)(C)C.O=S(=O)([N-]S(=O)(=O)C(F)(F)F)C(F)(F)F", "OBSERVED_RESULT": 0.6}
{"COMPOUND": "CCCCCCCCCCC [undecane] + CCCCCCCCCC[N+](C)(C)C.O=S(=O)([N-]S(=O)(=O)C(F)(F)F)C(F)(F)F", "OBSERVED_RESULT": 11.4}
{"COMPOUND": "ClC(Cl)Cl [trichloromethane] + CCCCCCCC[N+](C)(C)C.O=S(=O)([N-]S(=O)(=O)C(F)(F)F)C(F)(F)F", "OBSERVED_RESULT": 0.66}
{"COMPOUND": "Cc1ccccc1C [1,2-dimethylbenzene] + CCCCCCCC[N+](CCCCCCCC)(CCCCCCCC)CCCCCCCC.O=S(=O)([N-]S(=O)(=O)C(F)(F)F)C(F)(F)F", "OBSERVED_RESULT": 0.58}
{"COMPOUND": "CCCCCCCCCC [decane] + CCCCCCCC[N+](C)(C)C.O=S(=O)([N-]S(=O)(=O)C(F)(F)F)C(F)(F)F", "OBSERVED_RESULT": 16.2}
{"COMPOUND": "CCC(=O)CC [pentan-3-one] + CCCCCCCC[N+](CCCCCCCC)(CCCCCCCC)CCCCCCCC.O=S(=O)([N-]S(=O)(=O)C(F)(F)F)C(F)(F)F", "OBSERVED_RESULT": 0.35}
{"COMPOUND": "C=O [methanal] + CCCCCCCC[N+](C)(C)C.O=S(=O)([N-]S(=O)(=O)C(F)(F)F)C(F)(F)F", "OBSERVED_RESULT": 0.12}
{"COMPOUND": "CCOCC [diethyl ether] + CCCC[N+](C)(CCCC)CCCC.O=S(=O)([N-]S(=O)(=O)C(F)(F)F)C(F)(F)F", "OBSERVED_RESULT": 1.65}
{"COMPOUND": "CCC(C)CC [3-methylpentane] + CCCCCCCC[N+](CCCCCCCC)(CCCCCCCC)CCCCCCCC.O=S(=O)([N-]S(=O)(=O)C(F)(F)F)C(F)(F)F", "OBSERVED_RESULT": 1.21}
{"COMPOUND": "C1COCCO1 [1,4-dioxane] + CCCCCCCC[N+](C)(C)C.O=S(=O)([N-]S(=O)(=O)C(F)(F)F)C(F)(F)F", "OBSERVED_RESULT": 0.61}
{"COMPOUND": "c1ccncc1 [pyridine] + CCCCCCCCCC[N+](C)(C)C.O=S(=O)([N-]S(=O)(=O)C(F)(F)F)C(F)(F)F", "OBSERVED_RESULT": 0.47}
{"COMPOUND": "Cc1cccc(C)c1 [1,3-dimethylbenzene] + CCCCCCCCCC[N+](C)(C)C.O=S(=O)([N-]S(=O)(=O)C(F)(F)F)C(F)(F)F", "OBSERVED_RESULT": 1.11}
{"COMPOUND": "CCCCCCCCCC [decane] + CCCC[N+](C)(CCCC)CCCC.O=S(=O)([N-]S(=O)(=O)C(F)(F)F)C(F)(F)F", "OBSERVED_RESULT": 17.8}
{"COMPOUND": "C#CCCCCC [1-heptyne] + CCCC[N+](C)(CCCC)CCCC.O=S(=O)([N-]S(=O)(=O)C(F)(F)F)C(F)(F)F", "OBSERVED_RESULT": 2.85}
{"COMPOUND": "CCCCCC [hexane] + CCCC[N+](C)(CCCC)CCCC.O=S(=O)([N-]S(=O)(=O)C(F)(F)F)C(F)(F)F", "OBSERVED_RESULT": 6.44}
{"COMPOUND": "C[N+](=O)[O-] [nitromethane] + CCCCCCCCCC[N+](C)(C)C.O=S(=O)([N-]S(=O)(=O)C(F)(F)F)C(F)(F)F", "OBSERVED_RESULT": 0.55}

---

# ASSAY_TEXT: activity coefficient (dimensionless); of the first substance listed, at infinite dilution; xn = mol fraction of the nth substance listed
# CONDITION_CONTEXT: 343.15 K; Liquid; Chromatography; x1 = 0
Note to self: values exactly at 1 are satisfied. So activity coefficient at or above 1 is satisfied, below is not satisfied.

{"COMPOUND": "c1ccsc1 [thiophene] + CCCCCCCC[N+](C)(C)C.O=S(=O)([N-]S(=O)(=O)C(F)(F)F)C(F)(F)F", "CLASS_NAME": "not satisfied"}
{"COMPOUND": "CCCCCC [hexane] + CCCCCCCC[N+](C)(C)C.O=S(=O)([N-]S(=O)(=O)C(F)(F)F)C(F)(F)F", "CLASS_NAME": "satisfied"}
{"COMPOUND": "C1CCCCC1 [cyclohexane] + CCCCCCCC[N+](CCCCCCCC)(CCCCCCCC)CCCCCCCC.O=S(=O)([N-]S(=O)(=O)C(F)(F)F)C(F)(F)F", "CLASS_NAME": "not satisfied"}
{"COMPOUND": "CCCCCCCCCCC [undecane] + CCCCCCCC[N+](C)(C)C.O=S(=O)([N-]S(=O)(=O)C(F)(F)F)C(F)(F)F", "CLASS_NAME": "satisfied"}
{"COMPOUND": "CC(C)O [propan-2-ol] + CCCC[N+](C)(CCCC)CCCC.O=S(=O)([N-]S(=O)(=O)C(F)(F)F)C(F)(F)F", "CLASS_NAME": "satisfied"}
{"COMPOUND": "CCCCCCC [heptane] + CCCC[N+](C)(CCCC)CCCC.O=S(=O)([N-]S(=O)(=O)C(F)(F)F)C(F)(F)F", "CLASS_NAME": "satisfied"}
{"COMPOUND": "CCCCCCCCCC [decane] + CCCCCCCC[N+](CCCCCCCC)(CCCCCCCC)CCCCCCCC.O=S(=O)([N-]S(=O)(=O)C(F)(F)F)C(F)(F)F", "CLASS_NAME": "satisfied"}
{"COMPOUND": "CCCC=O [butanal] + CCCCCCCC[N+](CCCCCCCC)(CCCCCCCC)CCCCCCCC.O=S(=O)([N-]S(=O)(=O)C(F)(F)F)C(F)(F)F", "CLASS_NAME": "not satisfied"}
{"COMPOUND": "CC#N [acetonitrile] + CCCC[N+](C)(CCCC)CCCC.O=S(=O)([N-]S(=O)(=O)C(F)(F)F)C(F)(F)F", "CLASS_NAME": "not satisfied"}
{"COMPOUND": "CCC=O [propanal] + CCCCCCCC[N+](C)(C)C.O=S(=O)([N-]S(=O)(=O)C(F)(F)F)C(F)(F)F", "CLASS_NAME": "not satisfied"}
{"COMPOUND": "c1ccccc1 [benzene] + CCCCCCCCCC[N+](C)(C)C.O=S(=O)([N-]S(=O)(=O)C(F)(F)F)C(F)(F)F", "CLASS_NAME": "not satisfied"}
{"COMPOUND": "C1COCCO1 [1,4-dioxane] + CCCC[N+](C)(CCCC)CCCC.O=S(=O)([N-]S(=O)(=O)C(F)(F)F)C(F)(F)F", "CLASS_NAME": "not satisfied"}
{"COMPOUND": "CO [methanol] + CCCC[N+](C)(CCCC)CCCC.O=S(=O)([N-]S(=O)(=O)C(F)(F)F)C(F)(F)F", "CLASS_NAME": "not satisfied"}
{"COMPOUND": "CCCCCCCC [octane] + CCCCCCCC[N+](CCCCCCCC)(CCCCCCCC)CCCCCCCC.O=S(=O)([N-]S(=O)(=O)C(F)(F)F)C(F)(F)F", "CLASS_NAME": "satisfied"}
{"COMPOUND": "ClCCl [dichloromethane] + CCCCCCCC[N+](C)(C)C.O=S(=O)([N-]S(=O)(=O)C(F)(F)F)C(F)(F)F", "CLASS_NAME": "not satisfied"}
{"COMPOUND": "CCCCCC [hexane] + CCCCCCCC[N+](CCCCCCCC)(CCCCCCCC)CCCCCCCC.O=S(=O)([N-]S(=O)(=O)C(F)(F)F)C(F)(F)F", "CLASS_NAME": "satisfied"}
{"COMPOUND": "CC(C)CC(C)(C)C [2,2,4-trimethylpentane] + CCCCCCCCCC[N+](C)(C)C.O=S(=O)([N-]S(=O)(=O)C(F)(F)F)C(F)(F)F", "CLASS_NAME": "satisfied"}
{"COMPOUND": "CC1CCCC1 [methylcyclopentane] + CCCCCCCC[N+](CCCCCCCC)(CCCCCCCC)CCCCCCCC.O=S(=O)([N-]S(=O)(=O)C(F)(F)F)C(F)(F)F", "CLASS_NAME": "not satisfied"}
{"COMPOUND": "Cc1ccc(C)cc1 [1,4-dimethylbenzene] + CCCCCCCCCC[N+](C)(C)C.O=S(=O)([N-]S(=O)(=O)C(F)(F)F)C(F)(F)F", "CLASS_NAME": "satisfied"}
{"COMPOUND": "CC(C)OC(C)C [diisopropyl ether] + CCCC[N+](C)(CCCC)CCCC.O=S(=O)([N-]S(=O)(=O)C(F)(F)F)C(F)(F)F", "CLASS_NAME": "satisfied"}
{"COMPOUND": "CCC(=O)CC [pentan-3-one] + CCCCCCCCCC[N+](C)(C)C.O=S(=O)([N-]S(=O)(=O)C(F)(F)F)C(F)(F)F", "CLASS_NAME": "not satisfied"}
{"COMPOUND": "CCC(C)=O [butanone] + CCCCCCCCCC[N+](C)(C)C.O=S(=O)([N-]S(=O)(=O)C(F)(F)F)C(F)(F)F", "CLASS_NAME": "not satisfied"}
{"COMPOUND": "CCCCCCCCCCCC [dodecane] + CCCCCCCCCC[N+](C)(C)C.O=S(=O)([N-]S(=O)(=O)C(F)(F)F)C(F)(F)F", "CLASS_NAME": "satisfied"}
{"COMPOUND": "CCOCC [diethyl ether] + CCCCCCCC[N+](CCCCCCCC)(CCCCCCCC)CCCCCCCC.O=S(=O)([N-]S(=O)(=O)C(F)(F)F)C(F)(F)F", "CLASS_NAME": "not satisfied"}
{"COMPOUND": "C1CCCCCC1 [cycloheptane] + CCCC[N+](C)(CCCC)CCCC.O=S(=O)([N-]S(=O)(=O)C(F)(F)F)C(F)(F)F", "CLASS_NAME": "satisfied"}
{"COMPOUND": "CCCCCCCC [octane] + CCCC[N+](C)(CCCC)CCCC.O=S(=O)([N-]S(=O)(=O)C(F)(F)F)C(F)(F)F", "CLASS_NAME": "satisfied"}
